pKi for Hepatocyte growth factor receptor (Homo sapiens) - collated from the literature.
pKi: −log10 of the molar value.
result.type: pKi

molecular.string: Fc1cccc(-n2cnnc2-c2c[nH]c3ncc(-c4ccc(N5CCC[C@H]5CN5CCCC5)nc4)cc23)c1F
result.type: pKi
recorded.measurement: > 6.70

molecular.string: Nc1cccc(-c2cnc(N)c(-c3nncn3-c3cccc(Cl)c3Cl)c2)c1
result.type: pKi
recorded.measurement: 6.00 to 7.00

molecular.string: Nc1ncc(-c2ccc(F)cc2)cc1-c1nncn1-c1cccc(F)c1F
result.type: pKi
recorded.measurement: 6.00 to 7.00

molecular.string: Fc1cccc(-c2cnoc2-c2c[nH]c3ncc(/C=C/n4cncn4)cc23)c1F
result.type: pKi
recorded.measurement: > 6.70

molecular.string: CN(C)Cc1ccc(-c2cnc(N)c(-c3nnnn3-c3cccc(F)c3Cl)c2)cc1
result.type: pKi
recorded.measurement: 6.00 to 7.00

molecular.string: Cc1nn(C2CCNCC2)c(C)c1-c1cnc(N)c(-c2nnnn2-c2cccc(Cl)c2F)c1
result.type: pKi
recorded.measurement: 6.00 to 7.00

molecular.string: Cc1nn(C)cc1-c1nn2c([C@@H](C)c3c(F)cc4ncccc4c3F)nnc2s1
result.type: pKi
recorded.measurement: 8.70

molecular.string: Nc1cccc(-c2cnc(N)c(-c3nncn3-c3cccc(F)c3F)n2)c1
result.type: pKi
recorded.measurement: ≥ 7.00

---

Ki for Hepatocyte growth factor receptor (Homo sapiens) - collated from the literature.

compound: CN1CCN(c2ccc(-c3cnc(N)c(-c4nnc(O)n4-c4cccc(F)c4F)n3)cc2)CC1
Ki: 100 to 1000 nM
--
compound: CCNC(=O)Nc1nc2cc(-c3cnc(N)c(-c4nnnn4-c4cccc(F)c4F)c3)c(OC)cc2[nH]1
Ki: 100 to 1000 nM
--
compound: C[C@@H](NC(=O)c1nc(-c2ccoc2)cnc1N)c1nnc2ccc(Nc3cccc(Cl)c3)nn12
Ki: ≤ 250 nM
--
compound: Cc1ccccc1-c1cnc(N)c(-c2nnnn2-c2cccc(F)c2F)c1
Ki: 100 to 1000 nM
--
compound: CCC(CO)Nc1cc(-c2c(N)nn3cc(C)cnc23)ncn1 (stereo not shown)
Ki: < 500 nM
--
compound: Fc1cccc(-c2cnoc2-c2c[nH]c3ncc(-c4c[nH]cn4)cc23)c1F
Ki: < 200 nM
--
compound: C[C@H](c1ccc2ncccc2c1)n1nnc2ccn(Cc3ccccc3)c(=O)c21
Ki: 1310 nM
--
compound: Nc1ncc(-c2cnc3ccccc3c2)nc1-c1nncn1-c1cccc(F)c1F
Ki: 100 to 1000 nM
--
compound: Clc1cccc(Nc2ccc3nnc(CNCc4ccccn4)n3n2)c1
Ki: > 2500 nM
--
compound: O=C(NCCCn1ccnc1)c1cc(-n2cnnc2-c2cccc(F)c2F)c[nH]1
Ki: > 10000 nM
